Test system: scopolamine-induced hypermotility
Assay: Antagonistic effect on scopolamine-induced hypermotility
Assay type: in vivo, mice (Std-ddY strain)
Conditions: Mus musculus, po; 30 mg/kg, orally; scopolamine hydrobromide 1 mg/kg i.p.; complete antagonism to motility level of non-dosed animals=100%; read-out: Inhibitory ratio (% antagonism of scopolamine-induced hypermotility)
ENDPOINT NAME: inhibition in vivo at 30 mg/kg (%)

>>> df
                                   compound                   endpoint_name  numeric_result
0  Fc1ccc(-c2nc(N3CCN(c4ccccn4)CC3)nc3c2CCC3)cc1  inhibition in vivo at 30 mg/kg            55.6
1  CCN1CCN(c2nc3c(c(-c4ccccc4)n2)CCCCCC3)CC1  inhibition in vivo at 30 mg/kg            72.5
2   COc1ccc(-c2nc(N3CCN(C)CC3)nc3c2CCC3)cc1  inhibition in vivo at 30 mg/kg            52.4
3  CCCN1CCN(c2nc3c(c(-c4ccc(F)cc4)n2)CCC3)CC1  inhibition in vivo at 30 mg/kg            97.6
4  CN1CCN(c2nc3c(c(-c4ccc(F)cc4)n2)CCCC3)CC1  inhibition in vivo at 30 mg/kg            96.4
5  CC1CCc2nc(N3CCN(CCO)CC3)nc(-c3ccc(F)cc3)c2C1 (stereo not drawn)  inhibition in vivo at 30 mg/kg            64.2
6  O=C(CCCN1CCN(c2nc3c(c(-c4ccc(F)cc4)n2)CCC3)CC1)c1ccc(F)cc1  inhibition in vivo at 30 mg/kg             100
7  CCN1CCN(c2nc3c(c(-c4ccc(F)cc4)n2)CCC3)CC1  inhibition in vivo at 30 mg/kg            81.4
8  c1ccc(CN2CCN(c3nc4c(c(-c5ccccc5)n3)CCCCC4)CC2)cc1  inhibition in vivo at 30 mg/kg            62.9

* * *

Target: serotonin (S2) receptor (Rattus norvegicus)
Sequence (P14842 whole entry): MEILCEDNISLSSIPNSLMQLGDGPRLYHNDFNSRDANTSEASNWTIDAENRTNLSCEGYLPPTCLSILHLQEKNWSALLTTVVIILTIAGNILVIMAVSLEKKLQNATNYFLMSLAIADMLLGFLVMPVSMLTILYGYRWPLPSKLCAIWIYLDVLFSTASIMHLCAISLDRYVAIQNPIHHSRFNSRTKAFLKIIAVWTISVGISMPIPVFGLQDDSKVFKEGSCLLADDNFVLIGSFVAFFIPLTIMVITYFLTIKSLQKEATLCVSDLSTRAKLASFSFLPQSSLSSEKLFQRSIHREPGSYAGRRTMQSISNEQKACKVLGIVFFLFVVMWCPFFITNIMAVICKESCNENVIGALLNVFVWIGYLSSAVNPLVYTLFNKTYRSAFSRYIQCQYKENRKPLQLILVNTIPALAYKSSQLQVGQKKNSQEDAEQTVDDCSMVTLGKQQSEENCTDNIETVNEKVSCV
Define the label as Criterion met when IC50 is strictly less than 30 nM and as Criterion not met in all remaining cases.

In [3]: df
Out[3]:
                                chem_smiles                              study_system           category
0    Fc1ccc(-c2nc(N3CCNCC3)nc3c2CCCCCC3)cc1  serotonin (S2) receptor (Rattus norvegicus)      Criterion met
1  CN1CCN(c2nc3c(c(-c4ccc(F)cc4)n2)CCCC3)CC1  serotonin (S2) receptor (Rattus norvegicus)  Criterion not met
2      c1ccc(-c2nc(N3CCNCC3)nc3c2CCCCC3)cc1  serotonin (S2) receptor (Rattus norvegicus)  Criterion not met
3       Fc1ccc(-c2nc(N3CCNCC3)nc3c2CCC3)cc1  serotonin (S2) receptor (Rattus norvegicus)      Criterion met
4     Fc1ccc(-c2nc(N3CCNCC3)nc3c2CCCCC3)cc1  serotonin (S2) receptor (Rattus norvegicus)      Criterion met

* * *

inhibition in vivo at 10 mg/kg reference
Test system: scopolamine-induced hypermotility
Assay: Antagonistic effect on scopolamine-induced hypermotility
Assay type: in vivo, mice (Std-ddY strain)
Settings: Mus musculus, po; 10 mg/kg, orally; scopolamine hydrobromide 1 mg/kg i.p.; complete antagonism to motility level of non-dosed animals=100%; read-out: Inhibitory ratio (% antagonism of scopolamine-induced hypermotility)
ENDPOINT NAME: inhibition in vivo at 10 mg/kg (%)

                                chem_smiles  numeric_result
0  CCN1CCN(c2nc3c(c(-c4ccc(F)cc4)n2)CCCCC3)CC1              80
1    CN1CCN(c2nc3c(c(-c4ccccc4)n2)CCCC3)CC1            67.2
2     c1ccc(-c2nc(N3CCNCC3)nc3c2CCCCCC3)cc1            60.4
3  CN1CCN(c2nc3c(c(-c4ccc(F)cc4)n2)CCC3)CC1              66
4  Fc1ccc(-c2nc(N3CCN(Cc4ccccc4)CC3)nc3c2CCCC3)cc1            61.1

* * *

System: scopolamine-induced hypermotility
Experiment: Antagonistic effect on scopolamine-induced hypermotility
Format: in vivo, mice (Std-ddY strain)
Settings: Mus musculus, po; 30 mg/kg, orally; scopolamine hydrobromide 1 mg/kg i.p.; complete antagonism to motility level of non-dosed animals=100%; read-out: Inhibitory ratio (% antagonism of scopolamine-induced hypermotility)
inhibition in vivo at 30 mg/kg reference
ENDPOINT NAME: inhibition in vivo at 30 mg/kg (%)

>>> df
                                    compound  numeric_result
 0  CN1CCN(c2nc3c(c(-c4cccc(F)c4)n2)CCC3)CC1            70.5
 1  CC1CCc2nc(N3CCN(C)CC3)nc(-c3ccc(F)cc3)c2C1 (centres unmarked)            60.8
 2  c1ccc(CN2CCN(c3nc4c(c(-c5ccccc5)n3)CCC4)CC2)cc1            54.4
 3  CC1CCc2nc(N3CCNCC3)nc(-c3ccc(F)cc3)c2C1 (centres unmarked)            64.5
 4  Fc1ccc(-c2nc(N3CCN(C4CCCC4)CC3)nc3c2CCC3)cc1            80.9
 5  OCCN1CCN(c2nc3c(c(-c4ccc(F)cc4)n2)CCCC3)CC1            75.7
 6  OCCN1CCN(c2nc3c(c(-c4ccccc4)n2)CCCC3)CC1              42
 7      c1ccc(-c2nc(N3CCNCC3)nc3c2CCCCC3)cc1            78.2
 8  CCN1CCN(c2nc3c(c(-c4ccc(OC)cc4)n2)CCC3)CC1            72.5
 9  Fc1ccc(-c2nc(N3CCN(c4ccccc4)CC3)nc3c2CCC3)cc1            35.2
10  CN1CCN(c2nc3c(c(-c4ccc(Cl)cc4)n2)CCCC3)CC1            62.6
11  CCN1CCN(c2nc3c(c(-c4ccccc4)n2)CCCCC3)CC1            54.2
12  CCN1CCN(c2nc3c(c(-c4ccc(F)cc4)n2)CC(C)CC3)CC1 (centres unmarked)              71
13  OCCN1CCN(c2nc3c(c(-c4ccc(F)cc4)n2)CCC3)CC1            64.5
14   CCN1CCN(c2nc3c(c(-c4ccccc4)n2)CCCC3)CC1            59.6
15  CCN1CCN(c2nc3c(c(-c4ccc(F)cc4)n2)CCCC3)CC1            59.1
16  Fc1ccc(-c2nc(N3CCN(Cc4ccccc4)CC3)nc3c2CCCCC3)cc1            81.6
17  CCN1CCN(c2nc3c(c(-c4ccc(Cl)cc4)n2)CCCC3)CC1            42.3
18  OCCN1CCN(c2nc3c(c(-c4ccc(Cl)cc4)n2)CCCC3)CC1            50.2
19  O=C(c1ccco1)N1CCN(c2nc3c(c(-c4ccc(F)cc4)n2)CCC3)CC1            60.4

* * *

Target: dopamine (D2) receptor (Rattus norvegicus)
Construct: Crude synaptosome fractions prepared from some brain regions in rats were used as the receptor sources
Sequence (P61169 whole entry): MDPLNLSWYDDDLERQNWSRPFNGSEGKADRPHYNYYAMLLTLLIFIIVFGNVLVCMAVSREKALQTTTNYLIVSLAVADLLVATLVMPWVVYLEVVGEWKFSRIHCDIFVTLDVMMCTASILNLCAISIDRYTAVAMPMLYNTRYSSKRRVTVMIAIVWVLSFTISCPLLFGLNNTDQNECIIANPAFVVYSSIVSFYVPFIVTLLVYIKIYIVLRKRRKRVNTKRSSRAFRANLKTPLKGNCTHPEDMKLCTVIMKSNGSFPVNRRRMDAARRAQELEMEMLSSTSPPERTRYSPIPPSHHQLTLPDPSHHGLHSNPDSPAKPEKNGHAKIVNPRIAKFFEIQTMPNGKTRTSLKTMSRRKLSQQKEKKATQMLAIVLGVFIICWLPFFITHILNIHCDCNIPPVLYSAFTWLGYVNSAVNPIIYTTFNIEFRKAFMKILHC
Test: Dopamine (D2) receptor binding assay, [3H] spiperone
Settings: rat brain crude synaptosome fractions
pIC50: −log10 of the molar value.
Use 6 as the dividing line for pIC50, with the line itself on the fulfilled side and lower values as not fulfilled.

>>> df
                                chem_smiles       category
0      c1ccc(-c2nc(N3CCNCC3)nc3c2CCCCC3)cc1  not fulfilled
1  CN1CCN(c2nc3c(c(-c4ccc(F)cc4)n2)CCCC3)CC1      fulfilled
2    Fc1ccc(-c2nc(N3CCNCC3)nc3c2CCCCCC3)cc1      fulfilled

* * *

IC50 reference
Target: serotonin (S1) receptor
Experiment: Serotonin (S1) receptor binding assay, [3H] serotonin
Settings: rat brain crude synaptosome fractions
ENDPOINT NAME: IC50 (µM)

>>> print(df.to_string())
                              chem_smiles  endpoint_name  unit_annotation  numeric_result
0   Fc1ccc(-c2nc(N3CCNCC3)nc3c2CCCCC3)cc1           IC50               µM               3
1     Fc1ccc(-c2nc(N3CCNCC3)nc3c2CCC3)cc1           IC50               µM            0.75
2  Fc1ccc(-c2nc(N3CCNCC3)nc3c2CCCCCC3)cc1           IC50               µM             1.3
